- Target Desc: M2Δi3R-Nb9-1 (Homo sapiens, UniProt P08172, A373T/DEL233-372/K374R/N2D/N3D/N6D/N9D)
- Construct: linker […]
- Sequence (P08172 with tags, fused parts or gaps N2D/N3D/N6D/N9D/DEL233-372/A373T/K374R): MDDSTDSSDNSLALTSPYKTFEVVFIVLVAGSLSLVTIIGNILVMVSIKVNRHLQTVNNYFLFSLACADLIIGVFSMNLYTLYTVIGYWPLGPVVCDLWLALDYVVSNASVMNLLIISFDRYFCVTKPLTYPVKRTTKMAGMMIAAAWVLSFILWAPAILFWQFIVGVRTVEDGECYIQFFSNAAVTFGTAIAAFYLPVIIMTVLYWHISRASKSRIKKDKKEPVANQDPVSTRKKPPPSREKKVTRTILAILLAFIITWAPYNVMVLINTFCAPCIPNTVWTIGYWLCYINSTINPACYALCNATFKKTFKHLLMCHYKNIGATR
- Experimental Protocol: Comparative radioligand competition assay ([3H]-N methyl scopolamine) on Sf9 membranes expressing M2Δi3R-Nb9-1
- Measurement Context: [3H]-NMS 0.5 nM, Sf9 membranes; IC50high
pIC50: −log10 of the molar value.
Observable: pIC50

INSERT INTO results (compound, target_desc, observed_result) VALUES
  ('C[N+](C)(C)CC#CCN1CCCC1=O [oxotremorine M]', 'M2Δi3R-Nb9-1 (Homo sapiens, UniProt P08172, A373T/DEL233-372/K374R/N2D/N3D/N6D/N9D)', 6.51);

###

- Target Desc: hMor1-34GS-Nb33 (Homo sapiens, UniProt P35372)
pIC50: −log10 of the molar value.
Observable: pIC50

INSERT INTO results (compound, observable, observed_result) VALUES
  ('Cc1cc(O)cc(C)c1C[C@H](N)C(=O)N[C@H](CCCNC(=N)N)C(=O)N[C@H]1Cc2ccccc2CN(CCC(N)=O)C1=O [KGOP01]', 'pIC50', 8.42);

###

- Target Desc: M2Δi3R (Homo sapiens, UniProt P08172, A373T/DEL233-372/K374R/N2D/N3D/N6D/N9D)
- Experimental Protocol: Comparative radioligand competition assay ([3H]-N methyl scopolamine) on Sf9 membranes expressing non-fused M2Δi3R
- Measurement Context: [3H]-NMS 0.5 nM
Observable: IC50 (µM)

INSERT INTO measurements (sample_smiles, observed_result) VALUES
  ('C[N+](C)(C)CC#CCN1CCCC1=O', 98.4);
